Below, each entry is listed with its recorded Activity.
# protocolText: Stimulation of GST in Mus musculus (mouse) liver using CDNB as substrate at 100 uM after 10 min by spectrophotometric analysis relative to control
# Type: ADME, tissue-based
measurementName: Activity (%)

INSERT INTO assay_data (molecule, measurementname, reportedvalue) VALUES
  ('CCOC(=O)CC(NC(=O)[C@@H]1CCCN1)C1O[C@H]2OC(C)(C)O[C@H]2[C@@H]1OC (stereo not given in full)', 'Activity', 28),
  ('CC(=O)c1ccc(N2C(=O)CC([C@H]3O[C@@H]4OC(C)(C)O[C@@H]4[C@H]3OCc3ccccc3)NC2=O)cc1 (stereo not given in full)', 'Activity', 19),
  ('CCOC(=O)CC(NC(=O)[C@@H](N)C(C)C)C1O[C@H]2OC(C)(C)O[C@H]2[C@@H]1OC (stereo not given in full)', 'Activity', 20),
  ('CO[C@@H]1[C@H]2OC(C)(C)O[C@H]2O[C@@H]1C1CC(=O)N(c2ccc(Cl)cc2)C(=O)N1 (stereo not given in full)', 'Activity', 24),
  ('CCCCN1C(=S)N(c2cccc(Cl)c2)C(=O)CC1[C@H]1O[C@@H]2OC(C)(C)O[C@@H]2[C@H]1OC (stereo not given in full)', 'Activity', 21),
  ('CCCCCCCCCCCCNC(CC(=O)NO)C1O[C@H]2OC(C)(C)O[C@H]2[C@@H]1OCc1ccccc1 (stereo not given in full)', 'Activity', 57),
  ('CCCCCCCCCCCCCCCCNC(CC(=O)NO)C1O[C@H]2OC(C)(C)O[C@H]2[C@@H]1OC (stereo not given in full)', 'Activity', 214),
  ('CCCCN(C(=S)Nc1ccccc1Cl)C(CC(=O)OCC)C1O[C@H]2OC(C)(C)O[C@H]2[C@@H]1OC (stereo not given in full)', 'Activity', 38),
  ('CCCCN1C(=S)N(c2ccccc2Cl)C(=O)CC1[C@H]1O[C@@H]2OC(C)(C)O[C@@H]2[C@H]1OC (stereo not given in full)', 'Activity', 64),
  ('CO[C@@H]1[C@H]2OC(C)(C)O[C@H]2O[C@@H]1C1CC(=O)N(Cc2ccccc2)C(=O)N1Cc1ccc(Br)cc1 (stereo not given in full)', 'Activity', 41);

----------
Below, each entry is listed with its recorded Activity.
# protocolText: Stimulation of GST in Mus musculus (mouse) liver using CDNB as substrate at 100 uM after 10 min by spectrophotometric analysis relative to control
# Format: ADME, tissue-based
measurementName: Activity (%)

INSERT INTO results (molecule, reportedvalue) VALUES
  ('COc1ccc(CN2C(=O)N(c3cccc(C(C)=O)c3)C(=O)CC2[C@H]2O[C@@H]3OC(C)(C)O[C@@H]3[C@H]2OCc2ccccc2)cc1 (some centres undefined)', 13),
  ('CC1(C)O[C@H]2O[C@H](C3CC(=O)N(Cc4ccccc4)C(=O)N3Cc3ccccc3)[C@H](OCc3ccccc3)[C@H]2O1 (some centres undefined)', 13),
  ('CCOC(=O)CC(NC(=O)[C@@H]1CCCN1C(=O)OCC1c2ccccc2-c2ccccc21)C1O[C@H]2OC(C)(C)O[C@H]2[C@@H]1OC (some centres undefined)', 197),
  ('COc1ccc(CN2C(=O)N(c3cc(Cl)cc(Cl)c3)C(=O)CC2[C@H]2O[C@@H]3OC(C)(C)O[C@@H]3[C@H]2OCc2ccccc2)cc1 (some centres undefined)', 12);
